TESTED_ON: T1, EsCas13d, nuclease-dead (Eubacterium siraeum, UniProt B0MS50, R295A;H300A;R849A;H854A)
T1 sequence: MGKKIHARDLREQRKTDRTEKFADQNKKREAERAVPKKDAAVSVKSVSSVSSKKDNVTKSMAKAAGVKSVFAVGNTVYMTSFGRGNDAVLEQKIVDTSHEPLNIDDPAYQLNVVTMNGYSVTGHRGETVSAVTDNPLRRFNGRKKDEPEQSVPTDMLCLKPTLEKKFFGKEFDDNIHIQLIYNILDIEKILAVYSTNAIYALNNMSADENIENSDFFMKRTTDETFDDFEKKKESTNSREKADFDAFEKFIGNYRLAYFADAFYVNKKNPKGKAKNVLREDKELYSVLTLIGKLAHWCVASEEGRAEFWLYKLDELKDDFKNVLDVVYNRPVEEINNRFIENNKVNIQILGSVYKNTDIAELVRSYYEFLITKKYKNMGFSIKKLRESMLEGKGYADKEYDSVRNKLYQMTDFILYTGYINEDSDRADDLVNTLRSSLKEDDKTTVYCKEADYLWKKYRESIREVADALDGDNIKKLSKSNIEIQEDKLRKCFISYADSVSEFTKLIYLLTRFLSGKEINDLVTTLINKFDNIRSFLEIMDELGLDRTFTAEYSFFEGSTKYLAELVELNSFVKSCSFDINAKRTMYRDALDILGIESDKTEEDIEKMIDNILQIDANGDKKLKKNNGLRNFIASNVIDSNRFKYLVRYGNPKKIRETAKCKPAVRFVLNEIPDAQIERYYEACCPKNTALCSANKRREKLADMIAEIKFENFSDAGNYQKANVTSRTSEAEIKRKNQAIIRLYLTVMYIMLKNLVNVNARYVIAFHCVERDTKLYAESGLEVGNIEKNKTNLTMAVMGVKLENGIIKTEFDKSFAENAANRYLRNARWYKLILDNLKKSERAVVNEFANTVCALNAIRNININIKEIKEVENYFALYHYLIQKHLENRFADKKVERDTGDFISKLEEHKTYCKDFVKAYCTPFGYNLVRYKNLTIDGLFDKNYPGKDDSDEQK
PROCEDURE_DETAILS: crRNA (strand 1, pre-loaded); Mg2+; 40 mM Tris-HCl pH 7.5, 150 mM NaCl, 6 mM MgCl2, 1 mM DTT, 0.1% Tween-20, 0.2 mg/ml BSA; 25 C; 10 min per concentration, then washed
CONDITIONS_USED: tags: His6-TwinStrep-SUMO cleaved; N-terminal SNAP kept (SNAP-Surface 488); label: 3' end held by stalled T7 RNA polymerase
Entries and their Kd values follow.
Please reply with the bare figure in nM and do not write the unit itself.

Some solved cases for reference:
target 1 insU 3' of 22,insU 3' of 12 (mixed) RNA 1: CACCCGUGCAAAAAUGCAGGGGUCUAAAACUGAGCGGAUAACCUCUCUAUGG RNA 2: GGGAAUGGAUCCACAUCUACGAAUUCGUACUCAUAGAGAGGUUUAUCCGCUCACCGAGAUCGGAAGAGCACACGU = 26.9
target 2 MT 5'PFS GUU 3'PFS CAG (mixed) RNA 1: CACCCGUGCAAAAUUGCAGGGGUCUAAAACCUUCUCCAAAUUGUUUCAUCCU RNA 2: GGGAAUGGAUCCACAUCUACGAAUUCGUUAGGAUGAAACAAUUUGGAGAAGCAGAGAUCGGAAGAGCACACGU = 10.9
target 1 insC 3' of 15,insA 3' of 7 (mixed) RNA 1: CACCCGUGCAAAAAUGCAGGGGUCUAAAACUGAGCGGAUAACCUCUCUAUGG RNA 2: GGGAAUGGAUCCACAUCUACGAAUUCGUACCAUAGAGCAGGUUAUCACGCUCACCGAGAUCGGAAGAGCACACGU = 12.6
target 1 MT 5'PFS GGC 3'PFS UUA (mixed) RNA 1: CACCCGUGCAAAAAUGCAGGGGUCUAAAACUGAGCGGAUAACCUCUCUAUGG RNA 2: GGGAAUGGAUCCACAUCUACGAAUUCGGCCCAUAGAGAGGUUAUCCGCUCAUUAAGAUCGGAAGAGCACACGU = 11.7
target 2 MT 5'PFS UCU 3'PFS UUC (mixed) RNA 1: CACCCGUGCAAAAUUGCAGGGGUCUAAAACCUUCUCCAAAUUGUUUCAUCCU RNA 2: GGGAAUGGAUCCACAUCUACGAAUUCUCUAGGAUGAAACAAUUUGGAGAAGUUCAGAUCGGAAGAGCACACGU = 18
target 1 MT 5'PFS CUA 3'PFS ACC (mixed) RNA 1: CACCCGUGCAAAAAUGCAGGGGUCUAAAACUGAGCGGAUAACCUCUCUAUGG RNA 2: GGGAAUGGAUCCACAUCUACGAAUUCCUACCAUAGAGAGGUUAUCCGCUCAACCAGAUCGGAAGAGCACACGU = 5

Now consider the entry below.
What value of Kd has been recorded for this entry: target 3 insU 3' of 22,insC 3' of 2 (mixed) RNA 1: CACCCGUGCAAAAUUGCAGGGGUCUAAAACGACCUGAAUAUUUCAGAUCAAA RNA 2: GGGAAUGGAUCCACAUCUACGAAUUCGUUUUUUGAUCUGAAAUAUUCAGGUCCUGCAGAUCGGAAGAGCACACGU 76.5
